Source of measurements: BindingDB's records for doi:10.1016/j.ejmech.2021.113481

# TEST TARGET: Cyclin-H/Cyclin-dependent kinase 7 (Homo sapiens, UniProt P51946+P50613)
# Sequence (P51946 whole entry): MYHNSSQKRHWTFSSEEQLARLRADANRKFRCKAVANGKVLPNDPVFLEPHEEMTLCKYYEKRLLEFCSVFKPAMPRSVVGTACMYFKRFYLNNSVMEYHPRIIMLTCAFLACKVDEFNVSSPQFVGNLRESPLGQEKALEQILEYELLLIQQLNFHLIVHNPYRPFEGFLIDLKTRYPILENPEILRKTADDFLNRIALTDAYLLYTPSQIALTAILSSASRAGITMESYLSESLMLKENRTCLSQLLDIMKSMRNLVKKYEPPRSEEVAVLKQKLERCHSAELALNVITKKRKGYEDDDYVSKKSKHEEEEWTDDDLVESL
# Sequence (P50613 whole entry): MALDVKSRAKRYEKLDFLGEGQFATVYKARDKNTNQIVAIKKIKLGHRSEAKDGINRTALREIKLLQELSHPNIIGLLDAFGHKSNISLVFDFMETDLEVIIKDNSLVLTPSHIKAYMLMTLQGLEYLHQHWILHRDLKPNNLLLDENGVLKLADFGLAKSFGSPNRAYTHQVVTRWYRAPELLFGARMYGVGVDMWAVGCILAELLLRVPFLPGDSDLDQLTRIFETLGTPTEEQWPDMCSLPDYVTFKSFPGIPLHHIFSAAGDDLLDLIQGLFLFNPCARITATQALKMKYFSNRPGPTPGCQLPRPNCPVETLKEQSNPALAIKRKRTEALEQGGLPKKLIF
# METHOD: Inhibition of CDK7/Cyclin H (unknown origin)
QUANTITY NAME: IC50 (nM)
Unit nM implied. Number only.

Use the examples below as a reference point.
CPD SMILES	IC50, nM
CN(C)C/C=C/C(=O)Nc1ccc(O[C@@H]2CCC[C@@H](Nc3ncc(Cl)c(-c4c[nH]c5ccccc45)n3)C2)c(F)c1	269
C=CC(=O)Nc1ccc(C(=O)N2CCC[C@@H](Nc3ncc(Cl)c(-c4c[nH]c5ccccc45)n3)C2)nc1	919
CN(C)C/C=C/C(=O)Nc1ccc(N2CCC[C@@H](Nc3ncc(Cl)c(-c4c[nH]c5ccccc45)n3)C2)nc1	74

Consider the compound shown here: CN(C)C/C=C/C(=O)Nc1ccc(C(=O)N2CCC[C@@H](Nc3ncc(Cl)c(-c4c[nH]c5ccccc45)n3)C2)nc1 What is its recorded IC50?
402
